Assay: Cell Viability - LYMP2-012 (AID 982);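 also: cellular ATP by luciferase luminescence where a drop means cytotoxicity; cells exposed to compound for one day before reading; nearly all actives have a fitted effect of over 55% in size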
Conditions: LYMP2-012 lymphoblastoid cell viability qHTS; series mostly up to 92.2 µM
Results filed as inconclusive are left out. Active and inactive are the calls of the source. Calls follow the shape of the dose curve; as a rule, active = well fitted cell-killing curve with a large enough effect; inconclusive = small, poorly fitted or top-dose-only effect; inactive = flat fitted curve, though single readings scatter.
Could you please pick one outcome from this set? active, inactive

>  <SMI>
N#C/C(N)=C(/N)C#N

>  <GROUP_LABEL>
inactive

$$$$
>  <SMI>
Nn1cnnc1

>  <GROUP_LABEL>
inactive

$$$$
>  <SMI>
CN1CSC(=S)N(C)C1

>  <GROUP_LABEL>
active

$$$$

Continue with the next compound.
Query string: Identify the outcome logged in this assay for the compound shown: `Cc1cc(-c2cc(C)c(N)c(C)c2)cc(C)c1N`
Result string: inactive
